System: MS2 coat protein
Assay: apparent KD of MS2 coat protein; designed switch direction (-1 OFF switch, 1 ON switch): 1; higher = weaker reporter binding
Conditions: input ligand: none
value.kind: apparent KD of MS2 coat protein (nM)

[[record]]
query_sequence = "GCGAGCGUACUUGCAGACAUGAGGAUCACCCAUGUAACUGGACAGGAUAUGGUACCGUUUCGGUACCAGAAGGGUUUAUUCAUG [JL SSNG3 3.56] (Eterna round: R96, puzzle: Same State NG 3)"
numeric_result = 56.2

[[record]]
query_sequence = "UUGAAGAAUUAAGGAUAUUGAAUACAUAUGUUUAACAUGAGGAUCACCCAUGUGGGUUGCGGUGUCGAGAAGGUAAAAUACUAG [Mat - same State NG 2 - JL mod - D97] (Eterna round: R96, puzzle: Same State NG 2)"
numeric_result = 270


----------
System: MS2 coat protein
Assay: apparent KD of MS2 coat protein; designed switch direction (-1 OFF switch, 1 ON switch): -1; higher = weaker reporter binding
Conditions: input ligand: none
value.kind: apparent KD of MS2 coat protein (nM)

[[record]]
query_sequence = "CAGGAAGCGGAGGAUAUGAUGAAAACUCGGCAAUCAGAAGGCCGCACAUGAGGAUCACCCAUGUCGCAAAUACC [Eternabot (Original) Solution 36] (Eterna round: R97, puzzle: Exclusion 6)"
value_kind = "apparent KD of MS2 coat protein"
numeric_result = 15.3

[[record]]
query_sequence = "AGUGAACAUGAGGAUCACCCAUGUUAGGAUAUGUAUAAUCGACGAGCCUUUUCGUCGGGCAGAAGGGAUGGUGA [Eternabot (L2) Solution 95] (Eterna round: R97, puzzle: Exclusion 1)"
value_kind = "apparent KD of MS2 coat protein"
numeric_result = 41.6

[[record]]
query_sequence = "UUAGCUUCAGGAUAUACAGUGGGCUGGGAUCUAAAGAUCAAACAUGAGGAUCACCCAUGUAGAAGGGAACGGAA [Eternabot (L2) Solution 32] (Eterna round: R97, puzzle: Exclusion 2)"
value_kind = "apparent KD of MS2 coat protein"
numeric_result = 145


----------
The following sequences are listed with their measured apparent KD of MS2 coat protein values.
Test system: MS2 coat protein
Experiment: apparent KD of MS2 coat protein; designed switch direction (-1 OFF switch, 1 ON switch): -1; higher = weaker reporter binding
Settings: input ligand: FMN 200 uM
value.kind: apparent KD of MS2 coat protein (nM)

[[record]]
query_sequence = "ACUGGAGCAGGAUAUAUAUGACGUGCUUCGGCACGGUGAGUACAUGAGGAUCACCCAUGUAGAAGGGCUCCAGU [Exclusion 2 (Mod2 of Brourd's E2/9-D2)] (Eterna round: R97, puzzle: Exclusion 2)"
value_kind = "apparent KD of MS2 coat protein"
numeric_result = 88.4

[[record]]
query_sequence = "GCACGAAGUGUAGGAUAUCUGUGCGAUUAGCUCAGAGAAGGACACAUGAGGAUCACCCAUGUGUUUCACGGAAACGAAACGUGC [Eli exng1 - 054] (Eterna round: R96, puzzle: Exclusion NG 1)"
value_kind = "apparent KD of MS2 coat protein"
numeric_result = 10.7


----------
Test system: K4 kissing-loop RNA reporter
Experiment: apparent KD of K4 kissing-loop reporter; higher = weaker reporter binding
Conditions: Eterna round: R107; input ligand: arginine 13.2 mM
value.kind: apparent KD of K4 kissing-loop reporter (nM)

[[record]]
query_sequence = "UGUAUGUGUCAGCGAGUGAUGUUCGACGAUACCAGACUCGAUAGAGUCCCUUGGCAGCGUAAUGCAUGCCAACUGGCACAUACUA [#SwitchBubble 12 #K4Early]"
value_kind = "apparent KD of K4 kissing-loop reporter"
numeric_result = 651

[[record]]
query_sequence = "AAGGACGGGACUUCCUCGCCGGAUAGAGAUACCAGCCCAGCAAUGGGCCCUUGGCAGCUCACUGACCUCAGUGAUGUUGAGGUUC [Arange]"
value_kind = "apparent KD of K4 kissing-loop reporter"
numeric_result = 203

[[record]]
query_sequence = "GCAGUGAUGUUGCGGAUGUACAGUGGCGUGCGAGGACCGGUACGGCCGCCACUCGUACAGAGCGAGCUAAUACAUCGAUAGGUGA [whbob_SS_Tryp_A_m5]"
value_kind = "apparent KD of K4 kissing-loop reporter"
numeric_result = 212

[[record]]
query_sequence = "ACACGGAGAGGCAUAACGUGCAUCUUCAGCGAGGAUAUCCAUUACAGGAGAAGGCGCUCCGGAGUGAUGUUCCGGCAAAAGAUAC [Quatatte]"
value_kind = "apparent KD of K4 kissing-loop reporter"
numeric_result = 151

[[record]]
query_sequence = "AGGCACGAGCAAGGAUAUUGAGUAGAGUGAUGUUCUGCCUGGGUUGGCUCGCAAGAGCCUUCUCAGCGAGAAGGUGCUCGUGCCU [#2 Same State - FMN A Attempt #25 (HarryS)]"
value_kind = "apparent KD of K4 kissing-loop reporter"
numeric_result = 471

[[record]]
query_sequence = "UAUAUAUGAUGUGAUACCAGUGAAAAGCCAGUGAUGUUGGUAGAACUGGUAUAUAAAUGGCACCCUUGGCAGCACAAUCACGUAU [#28 K4 Theophylline B Exclusion]"
value_kind = "apparent KD of K4 kissing-loop reporter"
numeric_result = 108


----------
Test system: K4 kissing-loop RNA reporter;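 note: bound reporter read as fluorescence of individual clusters on recovered sequencing chips by microscopy, with normalized cluster intensities fitted with a binding model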
Assay: apparent KD of K4 kissing-loop reporter; higher = weaker reporter binding
Details: Eterna round: R107; input ligand: FMN 200 uM
value.kind: apparent KD of K4 kissing-loop reporter

[[record]]
query_sequence = "GCUACCUAUGCAGGAUAUGGUAUUACGAGUGAUGUUCGAGGCGAAUAGAGUGAUGUUCUAUUUCCACCAGAAGGGCAUAGGUAGC"
result = "143 nM"

[[record]]
query_sequence = "GAGCGGUGGAGGUUACCGCUAUUCUGAGAAGGAGCGCAGAAGACUGCAGGUAGGUCGCUUAGAGCUUGCAGUGAUGUUGCAAGUU [KL-SSArg-A13]"
result = "173 nM"

[[record]]
query_sequence = "UGAUAGGACAGAAGGAGCGGAAGUGAUGUUUCCAAAAGAUAUGGUCGACAAAGUCGACUUUUCCAGGUAGGUCGCUGUCCUAUCU [KL-XARG-B18]"
result = "60.4 nM"


----------
Test system: MS2 coat protein
Assay: apparent KD of MS2 coat protein; designed switch direction (-1 OFF switch, 1 ON switch): -1; higher = weaker reporter binding
Conditions: Eterna round: R95; input ligand: FMN 200 uM
Recorded apparent KD of MS2 coat protein split into classes low: < 30 nM; intermediate: ≥ 30 nM and < 90 nM; high: ≥ 90 nM

[[record]]
query_sequence = "AGUACUUACUCGAUAGUGUUAGUACAAUAAGCUUGUGAAACAUGAGGAUCACCCAUGUCCUCAUAAGCUCGUCUUAU [salish99_TOv2_r3_1005] (puzzle: Sensor v3, turn-off variant 2)"
label_class = "low"

[[record]]
query_sequence = "AAGAAACAUGAGGAUCACCCAUGUGAGGAUAUGAUGAAGAAAAGAAAAGAAAGAAGACUCAGAAGGCACAAAGG [salish99-ex1_r3_070] (puzzle: Exclusion 1)"
label_class = "intermediate"

[[record]]
query_sequence = "CUGGUCCGAGGAUAUAUUAUGUGAAACAUGAGGAUCACCCAUGUAAUAUGAUGGAAAUAAAUAGAAGGCGGACUAG [Mat - Exclusion 5 - JL mod - D32] (puzzle: Exclusion 5)"
label_class = "low"

[[record]]
query_sequence = "AGUAACCGUCACGAAAGUGAUGGUUACACAAGUGUAAUAACAUGAGGAUCACCCAUGUCCUCAUUUGCUCGUCUUAU [Sensor 3 - 36] (puzzle: Sensor v3, turn-off variant 2)"
label_class = "intermediate"

[[record]]
query_sequence = "AAGUACCGUCACGAUAGUGAUGGUACAACAAGCAGUGAUACAUGAGGAUCACCCAUGUCCUCAAUUGCUCGUCUUAU [Sensor 3 - 75] (puzzle: Sensor v3, turn-off variant 2)"
label_class = "high"

[[record]]
query_sequence = "AAUAACAGAGGAUAUACUAUAAUAUGAAUAAAAUAAAUAAAACAUGAGGAUCACCCAUGUAGAAGGCUGAAUAA [JMF's Not so obvious solution 10] (puzzle: Exclusion 2)"
label_class = "low"

[[record]]
query_sequence = "GACCCUAGGGUCAGACGCACAAGCUUUUUGCUCGUUUUAACAUGAGGAUCACCCAUGUCUAGUGGAUCUGAUCGGGC [Ongege] (puzzle: Sensor v3, turn-off variant 2)"
label_class = "low"

[[record]]
query_sequence = "GCGAAAGCAAGCAAGUGAAACAUGAGGAUCACCCAUGUCCUCAUUUGUUCGUCUUAUAAGCUAUGCGAAAGCAUAGC [Sensor 3, v1 - 7] (puzzle: Sensor v3, turn-off variant 1)"
label_class = "low"

[[record]]
query_sequence = "CUAGUCCGAGGAUAUAUAUUGUGAUACAUGAGGAUCACCCAUGUAAUAAUAUGGAAAUAAAUAGAAGGCGGACUAG [Mat - Exclusion 5 - JL mod - D53] (puzzle: Exclusion 5)"
label_class = "intermediate"

[[record]]
query_sequence = "GCCAGAGCAGGAUAUUCAUUAUAUCACAUGAGGAUCACCCAUGUCCAGCGAAAGCUGGAGGGAGAAGGGCUCUGGC [Fiskers Ex 5 - 24] (puzzle: Exclusion 5)"
label_class = "high"

[[record]]
query_sequence = "AAAUCCGCUGAGGAUAUGAUGACUGAGAGGUCAUCAGAAGGCGGUACAUGAGGAUCACCCAUGUCUAUGGGCAA [Ex-6 Malc#29] (puzzle: Exclusion 6)"
label_class = "high"

[[record]]
query_sequence = "CGGAGCAGAGGGAGAUCCAACAUGAGGAUCACCCAUGUCUCACAAGCUUUUUGCUCGUCUUAUUGUACCUUGGUGCU [JL ViennaUCT Edcesobi mod 7] (puzzle: Sensor v3, turn-off variant 1)"
label_class = "intermediate"

[[record]]
query_sequence = "UAUUAAACAUAGGAUAUCGAAAAUAUCAUUUAACGAGAAGGAUGAACAUGAGGAUCACCCAUGUGGUAUCAUGG [Mat - Exclusion 6 - JL Mod - D15] (puzzle: Exclusion 6)"
label_class = "high"

[[record]]
query_sequence = "CCGCAAAUGAAGGAUAUCGUAUCGGAUACGAUACGAGAAGGUCGAACAUGAGGAUCACCCAUGUGUCCUAGCGG [Fiskers Ex 6 - 41] (puzzle: Exclusion 6)"
label_class = "low"

[[record]]
query_sequence = "GAUUAUGCGAGCUUUAGGGACAUGAGGAUCACCCAUGUUCGUCUUAUUGGUCUGAGUGCACUGACAUACCUAAAUCU [JMF 86] (puzzle: Sensor v3, turn-off variant 1)"
label_class = "low"

[[record]]
query_sequence = "AGUAACCGUCACGAAAGUGAUGGUUACGCAAGUAAAUGUACAUGAGGAUCACCCAUGUCCUCAUUUGCUCGUCUUAU [Sensor 3 - 44] (puzzle: Sensor v3, turn-off variant 2)"
label_class = "high"

[[record]]
query_sequence = "AAGAAACAUGAGGAUCACCCAUGUGAGGAUAUGACGAAGAAAAGAAAAGAAAGAAGAGUCAGAAGGCACAAAGG [salish99-ex1_r3_067] (puzzle: Exclusion 1)"
label_class = "high"

[[record]]
query_sequence = "GAUUAUGCGAGCUUUAGGGACAUGAGGAUCACCCAUGUUCGUCUUAUUGAUCUAAGUGCACUAACAUACCUAAAUCU [JMF 29] (puzzle: Sensor v3, turn-off variant 1)"
label_class = "low"

